# assayed.system: BK receptors in human ciliary muscle cells (h-CM) (Homo sapiens, UniProt P30411)
# Construct: h-CM cells expressing BK receptors were seeded; endogenous in cells; host or cells: human ciliary muscle (h-CM) cells
# experimental.protocol: Functional assay measuring [Ca2+]i mobilization (FLIPR) in h-CM cells
# Assay type: cell-based
# setup.conditions: class symbols (in μM), read-out: CaM (EC50)
property.measured: EC50

CNC(=O)c1ccc(CCC(=O)NCC(=O)N(C)c2ccc(Cl)c(COc3cccc4c(OCc5ccccn5)cc(C)nc34)c2Cl)cc1 [Compound 30]: 0.1 to 1 µM
CNC(=O)N1CCOC(CC(=O)NCC(=O)N(C)c2ccc(Cl)c(COc3cccc4c3nc(OC)n4Cc3ccccn3)c2Cl)C1 (stereo not drawn) [Compound 79]: 0.1 to 1 µM
COCCNC(=O)c1ccc(CCC(=O)NCC(=O)N(C)c2ccc(Cl)c(COc3cccc4c3nc(OC)n4Cc3ccccn3)c2Cl)cc1 [Compound 1]: < 0.1 µM
COc1nc2c(OCc3c(Cl)ccc(N(C)C(=O)CNC(=O)CCC4CN=C(N[N+](=O)[O-])NC4)c3Cl)cccc2n1Cc1ccccn1 (stereo not drawn) [Compound 76]: < 0.1 µM
CNC(=O)c1ccc(CCC(=O)NCC(=O)N(C)c2ccc(Cl)c(COc3cccc4c3nc(OC)n4Cc3cn(C)cn3)c2Cl)cn1 [Compound 86]: < 0.1 µM
COc1nc2c(OCc3c(Cl)ccc(N(C)C(=O)CNC(=O)CCN4CCOCC4)c3Cl)cccc2n1Cc1ccccn1 [Compound 54]: 0.1 to 1 µM

---

# assayed.system: recombinant human bradykinin B2 receptor (Homo sapiens)
# Construct: expressed in transfected cells; host or cells: Chinese hamster ovary (CHO) cells, membrane homogenates
# experimental.protocol: [3H]-BK competition radioligand binding to human cloned B2 receptor (CHO cell membranes)
# setup.conditions: 0.2 nM [3H]-bradykinin, CHO membranes, 60 min 23° C.; mean ± SEM or single value; Ki from IC50 by Cheng-Prusoff; read-out: [3H]-BK Binding to Human Cloned B2 Receptor (Ki)
pKi: −log10 of the molar value.
pKi values by entry
property.measured: pKi

COC(=O)Nc1ccc(CCC(=O)NCC(=O)N(C)c2ccc(C)c(COc3cccc4c3nc(OC)n4Cc3ccccn3)c2C)cn1 [Compound 4]: 6.80
CNC(=O)N1CCN(CCC(=O)NCC(=O)N(C)c2ccc(Cl)c(COc3cccc4c3nc(OC)n4Cc3ccccn3)c2Cl)CC1: 6.93
COc1nc2c(OCc3c(Cl)ccc(N(C)C(=O)CNC(=O)CCc4cnc(NC(C)=O)nc4)c3Cl)cccc2n1Cc1ccccn1: 6.64
CNC(=O)N1CCN(CC(=O)NCC(=O)N(C)c2ccc(Cl)c(COc3cccc4c3nc(OC)n4Cc3ccccn3)c2Cl)CC1: 5.96
CCc1nc2c(OCc3c(Cl)ccc(N(C)C(=O)CNC(=O)CCN4CCN(C(=O)NC)CC4)c3Cl)cccc2n1Cc1ccccn1: 6.58
CC(=O)Nc1ccc(CC(=O)NCC(=O)N(C)c2ccc(Cl)c(COc3cccc4c(OCc5ccccn5)cc(C)nc34)c2Cl)cc1: 7.82
COc1nc2c(OCc3c(Cl)ccc(N(C)C(=O)CNC(=O)CCN4CCNCC4)c3Cl)cccc2n1Cc1ccccn1: 5.50
CNC(=O)[C@@H]1CN(CC(=O)NCC(=O)N(C)c2ccc(Cl)c(COc3cccc4c3nc(OC)n4Cc3ccccn3)c2Cl)CCO1: 7.40
CNC(=O)C1CCCN(CC(=O)NCC(=O)N(C)c2ccc(Cl)c(COc3cccc4c3nc(OC)n4Cc3ccccn3)c2Cl)C1 (stereo not shown): 6.40
CNC(=O)C1CCN(CCC(=O)NCC(=O)N(C)c2ccc(Cl)c(COc3cccc4c3nc(OC)n4Cc3ccccn3)c2Cl)CC1: 6.41
CCc1nc2c(OCc3c(Cl)ccc(N(C)C(=O)CNC(=O)CCc4ccc(NC(C)=O)nc4)c3Cl)cccn2c1C(O)c1ccccn1 (stereo not shown): 6.07
COc1nc2c(OCc3c(Cl)ccc(N(C)C(=O)CNC(=O)CN4CCOCC4)c3Cl)cccc2n1Cc1ccccn1: 6.71
COc1nc2c(OCc3c(Cl)ccc(N(C)C(=O)CNC(=O)CCC4CN=C(NC(C)=O)NC4)c3Cl)cccc2n1Cc1ccccn1 (stereo not shown): 7.13

---

Below, each entry is listed alongside its reported Ki.
# assayed.system: recombinant human bradykinin B2 receptor (Homo sapiens)
# Construct: expressed in transfected cells; host or cells: Chinese hamster ovary (CHO) cells, membrane homogenates
# experimental.protocol: [3H]-BK competition radioligand binding to human cloned B2 receptor (CHO cell membranes)
# setup.conditions: 0.2 nM [3H]-bradykinin, CHO membranes, 60 min 23° C.; mean ± SEM or single value; Ki from IC50 by Cheng-Prusoff; read-out: [3H]-BK Binding to Human Cloned B2 Receptor (Ki)
property.measured: Ki (nM)

COC(=O)Nc1ccc(CCC(=O)NCC(=O)N(C)c2ccc(C)c(COc3cccc4c3nc(OC)n4Cc3ccccn3)c2C)cn1 [Compound 6]: 10
CNC(=O)c1ccc(CCC(=O)NCC(=O)N(C)c2ccc(Cl)c(COc3cccc4c(OCc5ccccn5)cc(C)nc34)c2Cl)cn1: 11
COc1nc2c(OCc3c(Cl)ccc(N(C)C(=O)CNC(=O)CCc4ccc(NC(=O)CN(C)C)nc4)c3Cl)cccc2n1Cc1ccccn1: 184
COc1nc2c(OCc3c(Cl)ccc(N(C)C(=O)CNC(=O)CN4CCO[C@@H](C(=O)NC5CC5)C4)c3Cl)cccc2n1Cc1ccccn1: 78.3
CCc1nc2c(OCc3c(Cl)ccc(N(C)C(=O)CNC(=O)CCC4CN=C(NC(C)=O)NC4)c3Cl)cccc2n1Cc1ccccn1 (stereo not drawn): 451
CNC(=O)C1CNCC(CC(=O)NCC(=O)N(C)c2ccc(Cl)c(COc3cccc4c3nc(OC)n4Cc3ccccn3)c2Cl)C1 (stereo not drawn): 108

---

# assayed.system: recombinant human bradykinin B2 receptor (Homo sapiens)
# Construct: expressed in transfected cells; host or cells: Chinese hamster ovary (CHO) cells, membrane homogenates
# experimental.protocol: [3H]-BK competition radioligand binding to human cloned B2 receptor (CHO cell membranes)
# setup.conditions: 0.2 nM [3H]-bradykinin, CHO membranes, 60 min 23° C.; mean ± SEM or single value; Ki from IC50 by Cheng-Prusoff; read-out: [3H]-BK Binding to Human Cloned B2 Receptor (Ki)
pKi: −log10 of the molar value.
property.measured: pKi

CNC(=O)c1ncc(CCC(=O)NCC(=O)N(C)c2ccc(Cl)c(COc3cccc4c3nc(OC)n4Cc3ccccn3)c2Cl)cn1: 6.71
Cc1cc(OCc2ccccn2)c2cccc(OCc3c(Cl)ccc(N(C)C(=O)CNC(=O)CCc4ccc(NS(C)(=O)=O)cc4)c3Cl)c2n1: 8.10
CCc1nc2c(OCc3c(Cl)ccc(N(C)C(=O)CNC(=O)CCN4CCN(C(=O)NC)CC4)c3Cl)cccn2c1C(O)c1ccccn1 (stereo not drawn) [Compound 26]: 5.67

---

# assayed.system: recombinant human bradykinin B2 receptor (Homo sapiens)
# Construct: expressed in transfected cells; host or cells: Chinese hamster ovary (CHO) cells, membrane homogenates
# Sequence (P30411 1-391): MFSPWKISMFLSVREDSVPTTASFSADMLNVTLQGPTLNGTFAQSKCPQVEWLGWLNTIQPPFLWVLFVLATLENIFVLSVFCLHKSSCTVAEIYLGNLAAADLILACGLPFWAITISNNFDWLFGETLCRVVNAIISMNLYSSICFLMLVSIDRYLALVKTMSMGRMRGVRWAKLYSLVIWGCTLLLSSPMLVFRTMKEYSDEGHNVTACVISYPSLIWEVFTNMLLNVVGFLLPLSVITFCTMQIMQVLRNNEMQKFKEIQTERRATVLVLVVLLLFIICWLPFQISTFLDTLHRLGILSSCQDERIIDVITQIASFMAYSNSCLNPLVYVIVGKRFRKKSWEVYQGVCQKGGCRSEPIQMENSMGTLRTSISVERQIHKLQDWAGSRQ
# experimental.protocol: [3H]-BK competition radioligand binding to human cloned B2 receptor (CHO cell membranes)
# setup.conditions: 0.2 nM [3H]-bradykinin, CHO membranes, 60 min 23° C.; mean ± SEM or single value; Ki from IC50 by Cheng-Prusoff; read-out: [3H]-BK Binding to Human Cloned B2 Receptor (Ki)
property.measured: Ki (nM)

COc1nc2c(OCc3c(Cl)ccc(N(C)C(=O)CNC(=O)CCc4ccc(C(=O)NCCO)cc4)c3Cl)cccc2n1Cc1ccccn1 [Compound 65]: 98.4
COc1nc2c(OCc3c(Cl)ccc(N(C)C(=O)CNC(=O)[C@H]4CCN(C(=O)OC(C)(C)C)C4)c3Cl)cccc2n1Cc1ccccn1 [Compound 34]: 77
COc1nc2c(OCc3c(Cl)ccc(N(C)C(=O)CNC(=O)C4CCN(C5CCNC5)C4)c3Cl)cccc2n1Cc1ccccn1 (stereo not drawn) [Compound 22]: 160

---

A collection of compounds and their measured EC50
# assayed.system: BK receptors in human ciliary muscle cells (h-CM) (Homo sapiens, UniProt P30411)
# Construct: h-CM cells expressing BK receptors were seeded; endogenous in cells; host or cells: human ciliary muscle (h-CM) cells
# Sequence (P30411 1-391): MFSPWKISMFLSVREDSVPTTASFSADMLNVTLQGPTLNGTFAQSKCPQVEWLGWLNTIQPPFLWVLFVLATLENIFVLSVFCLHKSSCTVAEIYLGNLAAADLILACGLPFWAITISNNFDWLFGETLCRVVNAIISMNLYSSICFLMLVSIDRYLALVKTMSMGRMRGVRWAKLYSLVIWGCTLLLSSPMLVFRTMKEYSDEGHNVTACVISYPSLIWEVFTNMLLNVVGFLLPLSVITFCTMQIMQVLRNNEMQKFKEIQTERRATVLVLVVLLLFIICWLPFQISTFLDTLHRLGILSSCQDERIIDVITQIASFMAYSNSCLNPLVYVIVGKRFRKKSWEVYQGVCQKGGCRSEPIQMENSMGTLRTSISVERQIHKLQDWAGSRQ
# experimental.protocol: Functional assay measuring [Ca2+]i mobilization (FLIPR) in h-CM cells
# Format: cell-based
# setup.conditions: class symbols (in μM), read-out: CaM (EC50)
property.measured: EC50

CNC(=O)[C@H]1CC[C@H](CCC(=O)NCC(=O)N(C)c2ccc(Cl)c(COc3cccc4c3nc(OC)n4Cc3ccccn3)c2Cl)CN1 [Compound 38]: < 0.1 µM
Cc1cc(OCc2ccccn2)c2cccc(OCc3c(Cl)ccc(N(C)C(=O)CNC(=O)CCc4ccc(NS(C)(=O)=O)cc4)c3Cl)c2n1 [Compound 29]: 0.1 to 1 µM
COc1nc2c(OCc3c(Cl)ccc(N(C)C(=O)CNC(=O)CN4CCOC(C(=O)NCCO)C4)c3Cl)cccc2n1Cc1ccccn1 (centres unmarked) [Compound 80]: < 0.1 µM
CNC(=O)[C@H]1CCCN(CC(=O)NCC(=O)N(C)c2ccc(Cl)c(COc3cccc4c3nc(OC)n4Cc3ccccn3)c2Cl)C1 [Compound 36]: < 0.1 µM
CC(=O)Nc1ccc(CC(=O)NCC(=O)N(C)c2ccc(Cl)c(COc3cccc4c(OCc5ccccn5)cc(C)nc34)c2Cl)cc1 [Compound 50]: 0.1 to 1 µM
